The reported numbers originate from ChEMBL document CHEMBL1156888.

- Test system: Escherichia coli
- METHOD_DESCRIPTION: Inhibition of Escherichia coli SecA N-terminal fragment EcN68 assessed as phosphate release at 100 uM by Malachite green assay
Calls of active or inactive are those of the source. The rule behind the calls is not given here.
OBSERVED_PROPERTY: inhibition

Example results:
c1ccc2oc(SCc3ccc(CSc4nc5ccccc5o4)cc3)nc2c1 ... Active
COc1ccc(C2=NC(SCc3ccc(CSc4nc(-c5ccc(OC)cc5)c(C#N)c(=O)[nH]4)cc3)=NC(=O)C2C#N)cc1 (stereo unspecified) ... Active
Cc1onc(-c2c(Cl)cccc2Cl)c1C(=O)Nc1cccc(Cl)c1 ... inactive
Cc1onc(-c2c(F)cccc2Cl)c1C(=O)Nc1ccc(Sc2ccccc2)nc1Sc1ccccc1 ... Active
Cc1ccc(C2=NC(SCc3ccc(CSc4nc(-c5ccc(C)cc5)c(C#N)c(=O)[nH]4)cc3)=NC(=O)C2C#N)cc1 (stereo unspecified) ... Active

Turning now to a further record.
[in] Which inhibition reading was recorded for the compound Cc1onc(-c2c(Cl)cccc2Cl)c1C(=O)NC1CCC(C)CC1 (stereo unspecified) ?
[out] inactive

---

- Tested on: Escherichia coli
- METHOD_DESCRIPTION: Inhibition of Escherichia coli SecA N-terminal fragment EcN68 assessed as phosphate release at 100 uM by Malachite green assay
Active and inactive are the calls of the source. The rule behind the calls is not given here.
Bench note: report the call from active, inactive

[in] GET /call?item= `Cc1ccc2oc(SCc3ccc(CSc4nc5cc(C)ccc5o4)cc3)nc2c1` returns the recorded outcome of this test.
[out] active

[in] GET /call?item= `Cc1onc(-c2c(Cl)cccc2Cl)c1C(=O)N1CCCCC1` returns the recorded outcome of this test.
[out] inactive

[in] GET /call?item= N#Cc1c(-c2ccc(Br)cc2)nc(SCc2ccc(CSC3=NC(=O)C(C#N)C(c4ccc(Br)cc4)=N3)cc2)[nH]c1=O (stereo not given) returns the recorded outcome of this test.
[out] active

[in] GET /call?item= `Cc1onc(-c2c(Cl)cccc2Cl)c1C(=O)N1CCSCC1` returns the recorded outcome of this test.
[out] inactive

[in] GET /call?item= CCc1ccc(C2=NC(SCc3ccc(CSc4nc(-c5ccc(CC)cc5)c(C#N)c(=O)[nH]4)cc3)=NC(=O)C2C#N)cc1 (stereo not given) returns the recorded outcome of this test.
[out] active
